activation for assorted compounds
- assay: FXN promoter activators, primary screen, cell-based, luciferase luminescence, HEK293 lucGAA850 (AID 540364);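 note: 0% = DMSO wells and 100% = 10 µM SAHA wells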
- condition.context: HEK293 lucGAA850 FXN promoter luciferase reporter, 24 h; at 6 µM; stronger effect = higher value; percent of 10 µM SAHA response
Out of some 360,000 compounds screened, about 2,000 (0.56%) were called active. What follows is part of a selection rich in actives, with near analogues and random picks from the rest.
value.kind: activation (%)

- CN1C(=O)/C(=N/OC(=O)c2ccccc2Br)c2ccccc21: 2.92
- COc1ccc(CN2C(=O)CN=C2Nc2ccc(C)cc2C)cc1: 2.67
- COc1ccc(Cl)cc1NC(=O)CN(C)C(=O)CNC(=O)C12CC3CC(CC(C3)C1)C2: 1.23
- CN1C(=O)/C(=C\c2cc(Br)cs2)c2ccccc21: 9.69
- COc1cccc(CNS(=O)(=O)c2cc3c(cc2C)n(C)c(=O)c(=O)n3C)c1: -0.74
- CN(C)C(CNC(=O)c1cc(Br)c(Br)s1)c1ccco1 (stereo unspecified): 0.51
